Catalogue of plant injury at 62 g/ha values
Tested on: corn (Zea mays)
Test Description: Test C pre-/postemergence greenhouse herbicide test
Assay type: in vivo
Stated Conditions: Zea mays, post-emergence; Corn; Postemergence; 62 g ai/ha; read-out: Plant response rating
Response body: numeric value in %, unit text excluded.

Use these answered entries as a reference point.
Input Smiles: COc1cc(=O)n(-c2ccc(F)cc2)nc1Cc1ccnc(C(F)(F)F)c1
Unit String: %
plant injury at 62 g/ha: 15
--
Input Smiles: Cc1cc(=O)n(-c2ccc(F)cc2)nc1Oc1ccnc(C(F)(F)F)c1
Unit String: %
plant injury at 62 g/ha: 35
--
Input Smiles: Cc1cc(=O)n(-c2ccc(F)cc2)nc1Cc1ccnc(C(F)(F)F)c1
Unit String: %
plant injury at 62 g/ha: 5

Query string: Item COc1cc(=O)n(-c2ccc(C(F)(F)F)cc2)nc1Cc1ccnc(C(F)(F)F)c1 with corn (Zea mays) - plant injury at 62 g/ha?
Result string: 40

Query string: One more compound: Cc1cc(=O)n(-c2ccc(C(F)(F)F)cc2)nc1Cc1ccnc(C(F)(F)F)c1
Result string: 20

Query string: One more compound: Cc1cc(Oc2ccnc(C(F)(F)F)c2)nn(-c2ccc(C(F)(F)F)cc2)c1=O
Result string: 25

====

Tested on: morningglory (Ipomoea coccinea)
Test Description: Test C pre-/postemergence greenhouse herbicide test
Assay type: in vivo
Stated Conditions: Morningglory; Preemergence; 125 g ai/ha
Catalogue of Plant response rating values
Answer using only a numeral; do not append any unit.

Molecule: CCOc1cc(=O)n(-c2ccc(F)cc2)nc1Cc1ccnc(C(F)(F)F)c1 [Compound 25]
Plant response rating: 100

Query string: Query (molecule): Cc1cc(=O)n(-c2ccc(F)cc2)nc1Cc1ccnc(C(F)(F)F)c1 [Compound 1] ; field requested: Plant response rating
Result string: 100

Query string: One more molecule: COc1cc(=O)n(-c2ccc(F)cc2)nc1Cc1ccnc(C(F)(F)F)c1 [Compound 17]
Result string: 100

Query string: One more molecule: COc1cc(=O)n(-c2ccc(C(F)(F)F)cc2)nc1Cc1ccnc(C(F)(F)F)c1 [Compound 16]
Result string: 100

Query string: One more molecule: Cc1cc(=O)n(-c2ccc(F)cc2)nc1Oc1ccnc(C(F)(F)F)c1 [Compound 14]
Result string: 65

Query string: One more molecule: Cc1cc(=O)n(-c2ccc(C(F)(F)F)cc2)nc1Cc1ccnc(C(F)(F)F)c1 [Compound 2]
Result string: 85

====

Test system: wheat, spring (spring wheat, Triticum aestivum)
Test Description: Test D pre-/postemergence controlled growth environment herbicide test
Assay type: in vivo
Stated Conditions: Postemergence, 250 g ai/ha, scale 0 to 100
Catalogue of Plant response rating values
Answer using only a numeral; do not append any unit.

Use these answered entries as a reference point.
Input Smiles: Cc1cc(=O)n(-c2ccc(F)cc2)nc1Oc1ccnc(C(F)(F)F)c1
Plant response rating: 15

Input Smiles: Cc1cc(=O)n(-c2ccc(F)cc2)nc1Cc1ccnc(C(F)(F)F)c1
Plant response rating: 10

Input Smiles: Cc1cc(=O)n(-c2ccc(C(F)(F)F)cc2)nc1Cc1ccnc(C(F)(F)F)c1
Plant response rating: 15

Query string: Query (molecule): COc1cc(=O)n(-c2ccc(F)cc2)nc1Cc1ccnc(C(F)(F)F)c1 ; field requested: Plant response rating
Result string: 20
